Biological target: Thymidylate synthase (Mus musculus, UniProt P07607)
Sequence (P07607 whole entry): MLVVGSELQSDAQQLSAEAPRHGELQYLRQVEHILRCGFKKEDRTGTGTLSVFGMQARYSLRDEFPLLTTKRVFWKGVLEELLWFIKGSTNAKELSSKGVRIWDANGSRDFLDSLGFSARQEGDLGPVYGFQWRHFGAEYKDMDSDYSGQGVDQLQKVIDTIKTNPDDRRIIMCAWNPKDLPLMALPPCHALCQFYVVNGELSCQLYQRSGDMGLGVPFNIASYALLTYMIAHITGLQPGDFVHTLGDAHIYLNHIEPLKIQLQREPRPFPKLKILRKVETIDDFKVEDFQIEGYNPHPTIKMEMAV
Experiment: In vitro inhibitory activity against thymidylate synthase partially purified from L1210 mouse leukemia cells
Type: cell-based
Reported pIC50 values follow for various molecules
Please keep in mind that pIC50 is minus log10 of the molar concentration; only the number is needed.

Some solved cases for reference:
> print(dat)
                                   molecule  readout  experimental.value
1  Cc1nc2cc(C)c(CN(C)c3ccc(C(=O)NCc4cccc([N+](=O)[O-])c4)c(F)c3)cc2c(=O)[nH]1    pIC50                7.25
2  C#CCN(Cc1cc2c(O)nc(CN(CCO)CCO)nc2cc1C)c1ccc(C(=O)NCc2cccc([N+](=O)[O-])c2)c(F)c1    pIC50                6.80
3  C#CCN(Cc1ccc2nc(CN(C)C)nc(O)c2c1)c1ccc(C(=O)NCc2cccc([N+](=O)[O-])c2)cc1    pIC50                6.21
4  C#CCN(Cc1ccc2nc(CN3CCC(O)C3)nc(O)c2c1)c1ccc(C(=O)NCc2cccc([N+](=O)[O-])c2)cc1 (configuration not stated)    pIC50                6.22
5  C#CCN(Cc1ccc2nc(CN3CCN(C)CC3)nc(O)c2c1)c1ccc(C(=O)NCc2cccc([N+](=O)[O-])c2)cc1    pIC50                6.05

Field: next molecule
Requested read-out: pIC50. Entry: `C#CCN(Cc1ccc2nc(CSc3nccc(O)n3)nc(O)c2c1)c1ccc(C(=O)NCc2cccc([N+](=O)[O-])c2)cc1` 5.48
